test system: Plasmodium falciparum; assay: Calibr Malaria Delayed Death Assay SOP; type: functional, organism-based; set-up: scale not given: in the data most compounds retested in dose-response had high values; settings: concentration 4.99e-06 (unit not given; other assays of the set use mol/L)
Out of some 38,000 compounds screened, about 1,200 (3.2%) showed an effect of 50% or more. The median lay at about -58%. The sample holds strong results, similar compounds and a random draw of the others, so the mix is not that of the screen.
Consider the reported Percent Effect of an entry and match it to a band in bin 1: < -80%; bin 2: ≥ -80% and < 50%; bin 3: ≥ 50%

Would you please look over these solved cases?
>  <compound>
O=C(NCCc1ccncc1)c1cccc(S(=O)(=O)NC2CCOC2)c1 (configuration not stated)

>  <group>
bin 2

$$$$
>  <compound>
OCCN1CCC(CNCc2cn(-c3ccccc3)nn2)CC1

>  <group>
bin 2

$$$$
>  <compound>
CNS(=O)(=O)CCCN1CCCC1c1cc(C)on1 (configuration not stated)

>  <group>
bin 1

$$$$
>  <compound>
COCCN1CCN(CCCS(=O)(=O)c2ccccc2)CC1C (configuration not stated)

>  <group>
bin 1

$$$$
>  <compound>
CC(C)(N)C(=O)N1CCCC1c1cncc(Oc2ccccc2)n1 (configuration not stated)

>  <group>
bin 3

$$$$
>  <compound>
CCN1CCOC(CNCc2ccc(OC)c(F)c2)C1 (configuration not stated)

>  <group>
bin 2

$$$$
>  <compound>
CNS(=O)(=O)CCCN1CCCCCC1c1ccc(C)o1 (configuration not stated)

>  <group>
bin 2

$$$$
>  <compound>
COc1ccc(CNCC2CCN(CCO)CC2)cc1F

>  <group>
bin 3

$$$$

Which of the defined bands does the recorded Percent Effect of COC(=O)NCC(=O)N1CCCC1c1nc(-c2ccccc2F)c[nH]1 (configuration not stated) sit within? bin 2

Which of the defined bands does the recorded Percent Effect of CNS(=O)(=O)CCCN1CCCN(Cc2ccccc2)CC1C (configuration not stated) sit within? bin 3

Which of the defined bands does the recorded Percent Effect of CCOCCNCC1CCN(CCO)CC1 sit within? bin 1

###

test system: Plasmodium falciparum; test: Calibr Malaria Delayed Death Assay SOP; format: functional, organism-based; parameters: scale not given: in the data most compounds retested in dose-response had high values; details: concentration 4.99e-06 (unit not given; other assays of the set use mol/L)
About 1,200 (3.2%) of roughly 38,000 compounds showed an effect of 50% or more. The median lay at about -58%. Many of the other results were omitted from the sample, so strong results are more common in it than they were.
Think of -60% as a floor: if Percent Effect stands on it or above, it is Satisfied; beneath it, Not satisfied.

Would you please look over these solved cases?
>  <compound>
OC1=C2C(=Nc3n[nH]c(O)c3C2c2ccccc2Cl)CCC1 (stereo not drawn)

>  <group>
Not satisfied

$$$$
>  <compound>
Cc1cccc(-n2nnnc2C(C)(C)Nc2ccccc2C)c1

>  <group>
Not satisfied

$$$$
>  <compound>
Cc1nc(C)c(C(=O)Nc2cnn(CC(=O)NC3CCCC3)c2)s1

>  <group>
Not satisfied

$$$$
>  <compound>
CC(C)C(=O)N1CCN(Cc2cnn(C)c2)CC2(CC(=O)N(C)C2)C1.O=C(O)C(F)(F)F (stereo not drawn)

>  <group>
Not satisfied

$$$$
>  <compound>
CCN1CCCC(O)(CN(C)Cc2ccc(C)o2)C1 (stereo not drawn)

>  <group>
Satisfied

$$$$
>  <compound>
CN(C)Cc1nc(-n2cnc(C(=O)NC3CCCC3)c2)n2ccccc12

>  <group>
Satisfied

$$$$
>  <compound>
Cc1nc(NC(=O)c2nn(-c3ccc(F)cc3C)cc2O)n[nH]1

>  <group>
Not satisfied

$$$$
>  <compound>
O=S(=O)(NC[C@H]1C[C@@H]2CCN1C[C@@H]2CN1CCCC1)c1ccc(Cl)cc1

>  <group>
Satisfied

$$$$

Is Percent Effect for O=C(NC[C@H]1C[C@@H]2CCN1C[C@@H]2CN1CCCCC1)Nc1ccccc1 at or above -60%? Satisfied

Is Percent Effect for COc1cc(CN2CCCC2)ccc1OC12CCCN(CC1)C2 (stereo not drawn) at or above -60%? Not satisfied

Is Percent Effect for CN(C)CCN1CCC(NC2CSCCc3ccccc32)CC1 (stereo not drawn) at or above -60%? Satisfied

Is Percent Effect for COc1ccccc1C(=O)NC(c1ccccn1)[C@H]1CC[C@H](CN)CC1 (stereo partly drawn) at or above -60%? Satisfied

Is Percent Effect for CN(C)CCNC(=O)c1cc2c(s1)CCN2S(C)(=O)=O at or above -60%? Not satisfied
